# testedOn: glucagon receptor (GCGR) overexpressed CHO-K1 cells or human primary hepatocytes (Homo sapiens, UniProt P47871)
# Construct: expressed in transfected cells; host or cells: GCGR overexpressed CHO-K1 cells or human primary hepatocytes (endogenous receptor)
# Sequence (P47871 26-477): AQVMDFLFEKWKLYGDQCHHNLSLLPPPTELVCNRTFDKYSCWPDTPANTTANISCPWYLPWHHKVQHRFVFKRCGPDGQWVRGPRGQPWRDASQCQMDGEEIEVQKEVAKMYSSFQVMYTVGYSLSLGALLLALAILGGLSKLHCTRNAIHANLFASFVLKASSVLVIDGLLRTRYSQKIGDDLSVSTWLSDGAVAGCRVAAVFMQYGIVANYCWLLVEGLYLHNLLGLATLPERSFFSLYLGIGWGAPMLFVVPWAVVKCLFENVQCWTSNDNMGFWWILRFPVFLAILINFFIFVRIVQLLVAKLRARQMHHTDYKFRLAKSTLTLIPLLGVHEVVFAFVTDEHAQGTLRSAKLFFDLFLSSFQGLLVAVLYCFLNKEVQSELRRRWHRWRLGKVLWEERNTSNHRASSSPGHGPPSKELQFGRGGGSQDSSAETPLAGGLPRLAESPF
# experimentDescription: Glucagon cAMP inhibition assay (Cisbio cAMP Dynamic 2 HTRF)
# Assay type: cell-based
# conditionLabel: inhibition of glucagon (EC50 concentration) induced cAMP production
recordedEndpoint: IC50 cAMP (nM)

1) Cc1cc(OC[C@@H](Nc2ccc(C(=O)NCCC(=O)O)cc2)C(C)C)cc(C)c1-c1ccc(C(F)(F)F)cc1    245.8

a. CCCC[C@@H](COc1ccc(-c2ccc(Cl)cc2Cl)c(F)c1)Nc1ccc(C(=O)NCCC(=O)O)cc1
b. CC(C)[C@@H](COc1ccc(-c2cc3ccccc3o2)cc1)Nc1ccc(C(=O)NCCC(=O)O)cc1
c. CCC(C)[C@@H](COc1cnc(-c2ccc(C(F)(F)F)cc2Cl)nc1)Nc1ccc(C(=O)NCCC(=O)O)cc1 (stereo partly shown)
Q: Task for the reader: rank each entry by its IC50 cAMP, from the minimum upward. Order the labels as requested and list them.
Ans: a, b, c
